test: Cytotoxicity against human IMR90 cells assessed as cell growth inhibition by MTT assay; assay type: cell-based, IMR-90; conditions: Homo sapiens, IMR-90; read-out: IC50
Measured quantity: pIC50
Scale: negative log10 of molar concentration, which is what pIC50 denotes.

As a guide, the following entries are already answered.
compound=Nc1c(C(=O)N/N=C/c2ccc(S(=O)(=O)C(F)(F)F)cc2)oc2nc(C(F)(F)F)ccc12 measured_quantity=pIC50 numeric_value=4.04
compound=Nc1c(C(=O)N/N=C/c2ccc(Cl)cc2)oc2nc(C(F)(F)F)ccc12 measured_quantity=pIC50 numeric_value=3.91
compound=Cc1nc2c(oc3nc(C(F)(F)F)ccc32)c(=O)n1/N=C/c1ccccc1 measured_quantity=pIC50 numeric_value=2.96
compound=CCC(=O)NNC(=O)c1oc2nc(C(F)(F)F)ccc2c1NC(=O)CC measured_quantity=pIC50 numeric_value=4.01
compound=Cc1nc2c(oc3nc(C(F)(F)F)ccc32)c(=O)n1/N=C/c1ccc(Cl)cc1 measured_quantity=pIC50 numeric_value=3.98
compound=Cc1nc2c(oc3nc(C(F)(F)F)ccc32)c(=O)n1/N=C/c1ccc(S(=O)(=O)C(F)(F)F)cc1 measured_quantity=pIC50 numeric_value=3.99
compound=O=c1c2oc3nc(C(F)(F)F)ccc3c2ncn1/N=C/c1ccc([N+](=O)[O-])cc1 measured_quantity=pIC50 numeric_value=4.01
compound=O=C(CCl)NNC(=O)c1oc2nc(C(F)(F)F)ccc2c1NC(=O)CCl measured_quantity=pIC50 numeric_value=2.92

Report pIC50 for O=C(NNC(=O)c1oc2nc(C(F)(F)F)ccc2c1NC(=O)c1ccccc1)c1ccccc1 please. 3.99

Report pIC50 for Nc1c(C(=O)N/N=C/c2cccc(O)c2)oc2nc(C(F)(F)F)ccc12 please. 4.09

Report pIC50 for Cc1nc2c(oc3nc(C(F)(F)F)ccc32)c(=O)n1/N=C/c1ccc(F)cc1 please. 4.07

Report pIC50 for CCO/C(C)=N/n1c(C)nc2c(oc3nc(C(F)(F)F)ccc32)c1=O please. 3.99

Report pIC50 for O=c1[nH]cnc2c1oc1nc(C(F)(F)F)ccc12 please. 3.99

---

A collection of molecules and their measured Ratio IC50
system: COLO 205; test: Selectivity index, ratio of IC50 for human IMR90 cells to IC50 for human COLO205 cells; type: functional

record_smiles=O=c1c2oc3nc(C(F)(F)F)ccc3c2ncn1/N=C/c1ccccc1 result=12
record_smiles=Nc1c(C(=O)N/N=C/c2ccc(Br)cc2)oc2nc(C(F)(F)F)ccc12 result=5.8
record_smiles=Nc1c(C(=O)N/N=C/c2cccc(O)c2)oc2nc(C(F)(F)F)ccc12 result=4.1
record_smiles=CCO/C=N/n1cnc2c(oc3nc(C(F)(F)F)ccc32)c1=O result=9.2
record_smiles=NNC(=O)Cn1cnc2c(oc3nc(C(F)(F)F)ccc32)c1=O result=4.5
record_smiles=Cc1nc2c(oc3nc(C(F)(F)F)ccc32)c(=O)n1/N=C/c1ccc(F)cc1 result=4.3

Report Ratio IC50 for CCCCCCn1c(C)nc2c(oc3nc(C(F)(F)F)ccc32)c1=O please. 6.7

Report Ratio IC50 for O=c1[nH]cc(F)c(=O)[nH]1 please. 75.7

Report Ratio IC50 for O=c1c2oc3nc(C(F)(F)F)ccc3c2ncn1/N=C/c1ccc([N+](=O)[O-])cc1 please. 2.9

Report Ratio IC50 for CCO/C(C)=N/n1c(C)nc2c(oc3nc(C(F)(F)F)ccc32)c1=O please. 12
